Readings of Ki for the listed compounds
Molecular target: CCK-A receptor
Assay: CCK-A receptor binding
Conditions: read-out: CCK-A (Ki)
Give the figure together with its unit, number first.

See these solved cases before continuing.
| Compound | Ki |
| --- | --- |
| CC(C)Oc1cccc(-n2c(CNC(=O)NCc3ccc(Br)cc3)nc3ccccc3c2=O)c1 [1 NH 4-BrPhCH2] | 3.1 µM |
| CC(C)Oc1cccc(-n2c(CCNC(=O)Nc3ccc(Br)cc3)nc3ccccc3c2=O)c1 [2 NH 4-BrPh] | 1.63 µM |
| CC(C)Oc1cccc(-n2c(CNC(=O)Nc3ccc([N+](=O)[O-])cc3)nc3ccccc3c2=O)c1 [1 NH 4-NO2 Ph] | 0.385 µM |

Now consider a different compound.
Challenge: Reported Ki, compound CC(C)Oc1cccc(-n2c(CCNC(=O)OCc3ccccc3)nc3ccccc3c2=O)c1 [2 O PhCH2] : ____
Response given: 2.77 µM

----------
Biological target: CCK-A receptor
Test: CCK-A receptor binding
Details: bound printed in μM in the Ki, nM column; read-out: CCK-A Ki (cell in μM)
Reported endpoint: Ki

Challenge: What does the record list as Ki for Cc1ccc(S(=O)(=O)NC(=O)NCc2nc3ccccc3c(=O)n2-c2cccc(OC(C)C)c2)cc1 ?
Response given: > 1 µM

----------
Molecular target: CCK-A receptor
Assay: CCK-A receptor binding
Conditions: read-out: CCK-A (Ki)
Reported endpoint: pKi
Scale for pKi: -log10 of concentration given in mol/L; no unit attached.

# example entries with known answers
| Compound | Subject of test | Reported endpoint | Observed |
| --- | --- | --- | --- |
| CCOC(=O)c1cccc(NC(=O)NCc2nc3ccccc3c(=O)n2-c2cccc(OC(C)C)c2)c1 [1 NH 3-COOEtPh] | CCK-A receptor | pKi | 5.83 |
| CC(C)Oc1cccc(-n2c(CNC(=O)Nc3ccc(Br)cc3)nc3ccccc3c2=O)c1 [1 NH 4-BrPh] | CCK-A receptor | pKi | 6.01 |
| Cc1cccc(NC(=O)NCc2nc3ccccc3c(=O)n2-c2cccc(OC(C)C)c2)c1 [1 NH 3-MePh] | CCK-A receptor | pKi | 5.79 |

Challenge: What value of pKi has been recorded for this entry: CC(C)Oc1cccc(-n2c(CNC(=O)Nc3ccc(C(F)(F)F)cc3)nc3ccccc3c2=O)c1 [1 NH 4-CF3 Ph]
Response given: 6.17
